target_of_assay: T1, SNAP-GAL2R T267^7.28A (human, UniProt O43603 1-387, T267^7.28A, Lumi4-Tb on the SNAP tag)
T1 construct: also called T267A; source: HEK293, transfected, on cells; not shown: SNAP tag, N-terminal, kept
T1 sequence (looked up): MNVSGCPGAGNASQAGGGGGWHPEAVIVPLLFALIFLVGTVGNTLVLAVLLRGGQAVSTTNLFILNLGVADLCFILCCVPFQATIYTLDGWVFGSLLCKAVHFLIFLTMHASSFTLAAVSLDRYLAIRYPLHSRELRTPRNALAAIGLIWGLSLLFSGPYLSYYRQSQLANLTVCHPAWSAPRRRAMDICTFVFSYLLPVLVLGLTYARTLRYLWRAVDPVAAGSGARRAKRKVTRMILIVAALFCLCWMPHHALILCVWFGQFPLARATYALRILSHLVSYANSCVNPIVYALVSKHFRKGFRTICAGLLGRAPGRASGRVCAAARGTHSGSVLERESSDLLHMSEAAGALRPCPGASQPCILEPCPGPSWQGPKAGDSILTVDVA
assay_text: AlphaScreen or HTRF; saturation binding: HEK293 cells transfected with SNAP-tagged receptor (WT or mutant) and labelled with SNAP-Lumi4-Tb, incubated with increasing concentrations of galanin-A2 in the presence or absence of 100 uM unlabeled galanin, 1 h at room temperature; HTRF ratio 665 nm/620 nm
measurement_context: one partner purified
pKd: −log10 of the molar value.

{"columns": ["binder", "pKd"],
 "data": [
  ["GWTLNSAGYLLGPHAVGNHRSFSDKNGLTSC (dye A2 on the additional C-terminal cysteine, numbers count on: the mature protein; additional cysteine at the C-terminal end of the peptide, carries the dye A2; source: synthetic peptide (synthesized by Vazyme, China))", 6.64]
]}
